The values you see were collected from the supplement of paper PMC10981050.

# Test system: K562
# Measurement Description: cell viability relative to vehicle control; higher = less cytotoxic;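 note: after 48 h exposure read by CellTiter-Glo luminescence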
# Measurement Setup: 10 µM; SRSF2 genotype: SRSF2 wt/wt
Where a name gives a salt, the structure may show the parent alone.
Property: cell viability (%)
One number for each entry, in %.

// known answers, use as guide
- Compound: "COc1cc(C[C@H](C)[C@H](C)Cc2ccc3c(c2)OCO3)ccc1O [Anwuligan]"
  Measurement Units: "%"
  cell viability: 87.9
- Compound: "Cc1nccn1CC1CCc2c(c3ccccc3n2C)C1=O (centres undefined) [Ondansetron Hydrochloride Dihydrate]"
  Measurement Units: "%"
  cell viability: 91.5
- Compound: "NC(N)=Nc1nc(CSCC/C(N)=N/S(N)(=O)=O)cs1 [Famotidine (Pepcid)]"
  Measurement Units: "%"
  cell viability: 109

Each of the following entries comes with a recorded value; kindly state cell viability for each.
1. CC(C(=O)Nc1cccc(/N=C/c2c(O)ccc3ccccc23)c1)c1ccccc1 (centres undefined) [Salermide]
2. O=C(O)Cc1ccccc1Nc1c(Cl)cccc1Cl [Diclofenac Diethylamine]
3. O=C(/C=C/c1ccc(O)c(O)c1)c1ccc(O)cc1O [Butein]
4. CNS(=O)(=O)Nc1nccc(Cc2c(C)c3ccc(Oc4ncccn4)cc3oc2=O)c1F
5. CCCCC[C@](C)(O)/C=C/[C@@H]1[C@@H](C/C=C\CCCC(=O)O)[C@@H](O)C[C@H]1O [Carboprost]
6. COc1ccc(-c2ccc3ncc4c(c3c2)n(-c2ccc(N3CCNCC3)c(C(F)(F)F)c2)c(=O)n4C)cn1
7. CC12CCC(CC1=O)C2(C)C (stereo not drawn) [(+)-Camphor]
8. O=C(O)CNC(=O)c1ccccc1 [Hippuric acid]

1. 83.2
2. 95.4
3. 76.8
4. 72.2
5. 102
6. 0.16
7. 101
8. 106

====

# Tested on: MOLM14
# Measurement Description: cell viability relative to vehicle control; higher = less cytotoxic
# Measurement Setup: 10 µM; SRSF2 genotype: SRSF2 P95H/wt
Record form. Attribute: cell viability. Fill in for each entry.
For clarity, give the value followed by its unit.

// known answers, use as guide
- Compound: "Nc1nc(Cl)nc2c1ncn2[C@@H]1O[C@H](CO)[C@@H](O)[C@@H]1F"
  Result: "2.95%"
- Compound: "CNc1nc(-c2ccc3c(N)n[nH]c3c2)cc(N2C[C@@H](C(=O)NC3CCCCC3)CC[C@H]2C)n1"
  Result: "42.3%"
- Compound: "Cc1ccc(Sc2cncc3sc(C(N)=O)cc23)cc1"
  Result: "89.3%"

Now look at this entry.
# cell viability (compound: C[n+]1c2n(c(=O)c3ccccc31)CCc1c-2[nH]c2ccccc12 [Dehydroevodiamine] ) is 94.8%

====

# System: OCI-AML2
# Measurement Description: cell viability relative to vehicle control; higher = less cytotoxic
# Measurement Setup: 10 µM; SRSF2 genotype: wt/wt
Record form. Attribute: cell viability. Fill in for each entry.
Give bare numbers, in %.

// known answers, use as guide
- Compound: "C[C@H]1O[C@@H](O[C@H]2CC[C@@]3(C)[C@@H](CC[C@]4(C)[C@@H]3C=C[C@]35OC[C@@]6(CCC(C)(C)C[C@H]63)[C@H](O)C[C@]54C)[C@]2(C)CO)[C@H](O)[C@@H](O[C@@H]2O[C@H](CO)[C@@H](O)[C@H](O)[C@H]2O)[C@H]1O"
  Result: 12.9
- Compound: "Cc1ccc(-c2cc(C(F)(F)F)nn2-c2ccc(S(N)(=O)=O)cc2)cc1"
  Result: 96.5
- Compound: "CCCOC(=O)c1ccc(O)cc1"
  Result: 90.1
- Compound: "O=Cc1ccc(CO)o1 [5-Hydroxymethylfurfural]"
  Result: 92.7
- Compound: "NS(=O)(=O)c1ccc(NC(=O)Nc2ccc(F)cc2)cc1"
  Result: 95

Each of the following entries comes with a recorded value; kindly state cell viability for each.
1. O=C1NCCc2[nH]c(-c3ccncc3)cc21
2. Cc1ccc(/C=N/NC(=O)c2ccccc2Oc2ccccc2)o1
3. Cc1cc(C)nc(O)n1.O=C(Nc1ccc([N+](=O)[O-])cc1)Nc1ccc([N+](=O)[O-])cc1

14.9
109
97.1

Each of the following entries comes with a recorded value; kindly state cell viability for each.
1. C[C@@H](c1ccc2nccn2c1)n1nnc2ncc(-c3cnn(C)c3)nc21
2. O=C(c1ccccc1)c1ccc2nc(NC(=O)c3csc(C4CCN(c5ncnc6ccsc56)CC4)n3)[nH]c2c1

1. 96.5
2. 25

====

# Tested on: OCI-AML2
# Measurement Description: cell viability relative to vehicle control; higher = less cytotoxic
# Measurement Setup: 10 µM; SRSF2 genotype: P95H/wt
Rule for this label: Yes means cell viability is less than 90%; No means cell viability is at least 90%.

- Molecule: "CNCc1ccc(C)c(NC(=O)c2ccc(Nc3nc(-c4ccccc4)c4ccccc4n3)cc2)c1"
  Category: "Yes"
- Molecule: "O=C1CCc2ccc(OCCCCN3CCN(c4cccc(Cl)c4Cl)CC3)cc2N1"
  Category: "Yes"
- Molecule: "CCCCCCCC(=O)N[C@H](CN1CCCC1)[C@H](O)c1ccc2c(c1)OCCO2 [Eliglustat (Tartrate)]"
  Category: "No"
- Molecule: "CC1(C)S[C@@H]2[C@H](NC(=O)Cc3ccccc3)C(=O)N2[C@H]1C(=O)O.CCN(CC)CCOC(=O)c1ccc(N)cc1"
  Category: "No"
- Molecule: "Cn1cc(-c2ccc3c(c2)CCN3C(=O)Cc2cccc(C(F)(F)F)c2)c2c(N)ncnc21"
  Category: "Yes"

Determine if O=C(O)[C@H]1O[C@@H](Oc2cc3oc(-c4ccccc4)cc(=O)c3c(O)c2O)[C@H](O)[C@@H](O)[C@@H]1O shows cell viability strictly lower than 90%.
No

Determine if CN(C)CC/C=C1/c2ccccc2Sc2ccc(Cl)cc21 shows cell viability strictly lower than 90%.
Yes

====

# Test system: OCI-AML2
# Measurement Description: cell viability relative to vehicle control; higher = less cytotoxic
# Measurement Setup: 10 µM; SRSF2 genotype: wt/wt
Structures can show the parent of a compound that is named as a salt.
Record form. Attribute: cell viability. Fill in for each entry.
Numbers only, in %.

// known answers, use as guide
- Compound: "Cc1csc(-c2nnc(Nc3ccc(Oc4ncccc4-c4ccnc(N)n4)cc3)c3ccccc23)c1"
  Tested Target: "OCI-AML2"
  Measurement Units: "%"
  cell viability: 33.4
- Compound: "COc1cccc(Nc2c(C(N)=O)cnc3c(C)cc(S(=O)(=O)c4cccc(C(=O)N(C)C)c4)cc23)c1"
  Tested Target: "OCI-AML2"
  Measurement Units: "%"
  cell viability: 98.2
- Compound: "COC(=O)C1=C(C)NC(C)=C(C(=O)OC(C)C)C1c1cccc2nonc12 (centres undefined) [Isradipine (Dynacirc)]"
  Tested Target: "OCI-AML2"
  Measurement Units: "%"
  cell viability: 99.5

Each of the following entries comes with a recorded value; kindly state cell viability for each.
1. CCN(CC)CCNC(=O)c1c(C)[nH]c(/C=C2\C(=O)Nc3ccc(F)cc32)c1C [Sunitinib]
2. Nc1ccc2ncnc(NCCc3ccc(Oc4ccccc4)cc3)c2c1
3. COc1ccc(CC(C)NCC(O)c2ccc(O)c(NC=O)c2)cc1 (centres undefined) [Formoterol hemifumarate]
4. NC1(Cc2ccc(Cl)cc2)CCN(c2ncnc3[nH]ccc23)CC1
5. CC=C(C)C(=O)O [S3803 Angelic acid.cdx]
6. CCOC(=O)n1ccn(C)c1=S [Carbimazole]
7. Cc1nccn1CC1CCc2c(c3ccccc3n2C)C1=O (centres undefined) [Ondansetron Hydrochloride Dihydrate]

1. 2.85
2. 51.5
3. 101
4. 30.9
5. 108
6. 97.4
7. 99.1

====

# Test system: OCI-AML2
# Measurement Description: cell viability relative to vehicle control; higher = less cytotoxic
# Measurement Setup: 10 µM; SRSF2 genotype: P95H/wt
Counter-ions that a name gives are not always drawn.
Record form. Attribute: cell viability. Fill in for each entry.

- Molecule: "CCC1=C[C@@H]2CN(C1)Cc1c([nH]c3ccccc13)[C@@](C(=O)OC)(c1cc3c(cc1OC)N(C)[C@H]1[C@@](O)(C(=O)OC)[C@H](OC(C)=O)[C@]4(CC)C=CCN5CC[C@]31[C@@H]54)C2 [Vinorelbine Tartrate]"
  cell viability: "1.63%"
- Molecule: "CCOC(=O)COc1ccc(/C=C2/SC(=S)NC2=O)cc1OC"
  cell viability: "104%"
- Molecule: "O=C(O)c1cc2cccc([N+](=O)[O-])c2[nH]1"
  cell viability: "111%"
- Molecule: "O=S(=O)(c1ccc2c(c1)C(=NO)c1cc(S(=O)(=O)N3CCCCC3)ccc1-2)N1CCCCC1"
  cell viability: "0.87%"
- Molecule: "CC(=O)OCC1=C(C(=O)O)N2C(=O)[C@@H](NC(=O)Cc3cccs3)[C@H]2SC1"
  cell viability: "95.1%"
- Molecule: "O=S(=O)(O)Oc1ccc(C(c2ccc(OS(=O)(=O)O)cc2)c2ccccn2)cc1 [Sodium Picosulfate]"
  cell viability: "104%"
- Molecule: "O=C(NC1CCN(CCCCC2(C(=O)NCC(F)(F)F)c3ccccc3-c3ccccc32)CC1)c1ccccc1-c1ccc(C(F)(F)F)cc1 [Lomitapide Mesylate]"
  cell viability: "0.27%"
- Molecule: "COc1ncc(-c2ccc3nccc(-c4ccnnc4)c3c2)cc1NS(=O)(=O)c1ccc(F)cc1F"
  cell viability: "0.26%"
- Molecule: "Nc1c2c(nc3ccccc13)CCCC2 [tacrine hydrochlorid]"
  cell viability: "122%"
- Molecule: "O=S1(=O)CCN(CN2CCS(=O)(=O)NC2)CN1"
  cell viability: "123%"

Each of the following entries comes with a recorded value; kindly state cell viability for each.
1. COc1cc(O)cc2c1C(=O)C[C@@H](c1ccccc1)O2
2. CCOc1cc(N2CCC(O)CC2)ccc1Nc1ncc2c(n1)N(C)c1ccccc1C(=O)N2C

["102%", "58.3%"]

Each of the following entries comes with a recorded value; kindly state cell viability for each.
1. CCOC(=O)c1ccc(C#Cc2ccc3c(c2)C(C)(C)CCS3)nc1
2. O=C(Nc1cnn2ccc(N3CCC[C@@H]3c3cc(F)ccc3F)nc12)N1CC[C@H](O)C1 [LOXO-101(sulfate)]
3. O=C(O)c1cc(C(=O)O)c(C(=O)N(Cc2cccc(Oc3ccccc3)c2)[C@H]2CCCc3ccccc32)cc1C(=O)O
4. CCCc1cc2c(N3CCN(C4=NCC(C)(C)S4)CC3)ncnc2s1
5. CC(=O)Nc1nc(C)c(-c2ccc(Cl)c(S(=O)(=O)NCCO)c2)s1
6. CC1(C)O[C@H]2CC(=O)OC[C@]23[C@H]2CC[C@@]4(C)[C@H](c5ccoc5)OC(=O)[C@H]5O[C@]54[C@]2(C)C(=O)C[C@@H]13
7. CC1=C(C(=O)OCCN(Cc2ccccc2)c2ccccc2)C(c2cccc([N+](=O)[O-])c2)C(P2(=O)OCC(C)(C)CO2)=C(C)N1 (stereo not given)
8. COc1cc2c(cc1OC)-c1cc3ccc(OC)c(OC)c3c[n+]1CC2

14.1%
98.2%
106%
45.1%
12.2%
111%
104%
88.8%

Each of the following entries comes with a recorded value; kindly state cell viability for each.
1. CS(=O)(=O)c1cccc(C[C@H](NC(=O)c2c(Cl)cc3c(c2Cl)CCN(C(=O)c2ccc4ccoc4c2)C3)C(=O)O)c1
2. CCN(C)S(=O)(=O)Nc1ccc(F)c(C(=O)c2c[nH]c3ncc(-c4cnc(C5CC5)nc4)cc23)c1F
3. O=c1[nH]cnc2ccccc12 [4-Hydroxyquinazoline]
4. O=C(O)c1cc(C(F)(F)F)ccc1N1CC[C@H](OCc2ccccn2)C1
5. COc1cc2nccc(Oc3ccc(NC(=O)c4cn(C(C)C)c(=O)n(-c5ccc(F)cc5)c4=O)cc3F)c2cc1OC

["92.2%", "91.5%", "99.6%", "106%", "70.4%"]
